Listed below: EC50 values for each entry.
tested on: HCV 1b_Huh-Luc/Neo-ET cell line persistently expressing a bicistronic genotype 1b replicon in Huh 7 cells; assay: HCV replicon assay (luciferase readout); assay type: cell-based; details: Hepatitis C virus, Huh-7, 72 h, read-out: Inhibition of HCV genotype 1b

Use the examples below as a reference point.
compound	measured
COC(=O)N[C@H](C(=O)N1CCC[C@H]1c1ncc(-c2ccc(C#Cc3ccc4nc([C@@H]5CCCN5C(=O)[C@@H](NC(=O)OC)[C@H](C)O)[nH]c4c3)cc2)[nH]1)[C@H](C)O [Compound 1031]	< 1 nM
COC(=O)N[C@H](C(=O)N1CCC[C@H]1c1ncc(-c2ccc(C#Cc3ccc4nc([C@@H]5CCCN5C(=O)[C@H](C(C)C)N(C)C)[nH]c4c3)cc2)[nH]1)C(C)C [Compound 1021]	< 1 nM
COC(=O)N[C@H](C(=O)N[C@H](c1ncc(-c2ccc(C#Cc3ccc(-c4cnc([C@@H]5CCCN5C(=O)[C@@H](NC(=O)OC)C(C)C)[nH]4)cc3)cc2)[nH]1)C(C)C)C(C)C [Compound 276]	1 to 9.9 nM
O=C([C@H](O)c1ccccc1)N1CCC[C@H]1c1ncc(-c2ccc(C#Cc3ccc(-c4cnc([C@@H]5CCCN5C(=O)[C@H](O)c5ccccc5)[nH]4)cc3)cc2)[nH]1 [Compound 157]	< 1 nM

## Task // query EC50 value for entry COC(=O)N[C@@H](C(=O)N1CCC[C@H]1c1ncc(-c2ccc(C#Cc3ccc(-c4cnc([C@@H]5CCCN5C(=O)[C@H](NC(=O)N5CC[C@H](F)C5)c5ccccc5)[nH]4)cc3)cc2)[nH]1)c1ccccc1 [Compound 270]
## Result < 1 nM
